TESTED_SYSTEM: hα2A receptor (Homo sapiens)
Construct: expressed in transfected cells
Sequence (P08913 whole entry): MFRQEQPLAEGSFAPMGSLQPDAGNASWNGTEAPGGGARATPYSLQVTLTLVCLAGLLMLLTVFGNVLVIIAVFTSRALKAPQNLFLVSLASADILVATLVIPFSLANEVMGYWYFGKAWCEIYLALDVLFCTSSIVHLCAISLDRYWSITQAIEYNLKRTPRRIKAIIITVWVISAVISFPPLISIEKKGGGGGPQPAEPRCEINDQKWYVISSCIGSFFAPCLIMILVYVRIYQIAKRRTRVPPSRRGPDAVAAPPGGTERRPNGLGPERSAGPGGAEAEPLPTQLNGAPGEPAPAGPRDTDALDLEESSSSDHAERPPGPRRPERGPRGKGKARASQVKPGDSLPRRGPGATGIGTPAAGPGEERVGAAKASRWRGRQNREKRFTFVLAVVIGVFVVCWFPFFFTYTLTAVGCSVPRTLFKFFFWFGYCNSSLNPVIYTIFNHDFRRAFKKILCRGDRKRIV
ASSAY_EXPLANATION: Radioligand binding experiment for hα2A receptor ([3H]-raulwolscine, CHO cell membranes)
MEASUREMENT_CONTEXT: [3H]raulwolscine 1 nM, membranes of CHO cells transfected with human α2A receptor; read-out: h-α2A pIC50 (converted)
PARAMETER: IC50 (nM)

Known IC50 results, listed for orientation:
CCCn1ccnc(N2CCN(CCOc3ccc(F)cc3)CC2)c1=O; 631
O=C(Cn1ccnc(NC2CCN(CCOc3ccccc3)CC2)c1=O)NCCCc1ccccc1; 316
O=C(Cn1ccnc(N2CCN(CCOc3ccc(F)cc3)CC2)c1=O)c1ccccc1; 158
CN(C)C(=O)Cn1ccnc(N2CCN(CCOc3ccc(F)cc3)CC2)c1=O; 316
O=c1c(N2CCN(CCOc3ccc(F)cc3)CC2)nccn1Cc1ccccc1; 100

P. CN(C)CCN(Cc1ccccc1)C(=O)Cn1ccnc(NC2CCN(CCOc3ccccc3)CC2)c1=O
Q. O=c1[nH]ccnc1NC1CCN(CCOc2ccccc2)CC1
Q) Please state the entry with greater IC50 among P and Q . Answer by stating the label of the chosen item.
A) Q

Ref: patent US20090281099A1
